Reported MIC values are given for each entry in this list.
tested on: Escherichia coli; experiment: Antibacterial activity against Escherichia coli KCTC 1682 assessed as growth inhibition after 18 to 20 hrs by broth microdilution method in presence of NaCl; assay type: functional

Take a look at these entries with their results.
{"columns": ["CHEMICAL_SMILES", "SUBJECT_OF_TEST", "METRIC_NAME", "RESULT"],
 "data": [
  ["CCCCCCCCCCn1c[n+](CCCCCCCCCC)cc1C[C@H](N)C(=O)N[C@@H](CCCNC(=N)N)C(N)=O", "Escherichia coli", "MIC", "8 µg/mL"],
  ["CCCCCCCCCCn1c[n+](CCCCCCCCCC)cc1C[C@H](NC(=O)[C@@H](N)CCCNC(=N)N)C(=O)N[C@@H](CCCNC(=N)N)C(N)=O", "Escherichia coli", "MIC", "16 µg/mL"],
  ["CCCCCCC/C=C/Cn1cncc1C[C@H](NC(=O)[C@@H](N)CCCNC(=N)N)C(=O)N[C@@H](CCCNC(=N)N)C(N)=O", "Escherichia coli", "MIC", "> 64 µg/mL"],
  ["CCCCCCCCCCn1cncc1C[C@H](NC(=O)[C@@H](N)CCCNC(=N)N)C(=O)N[C@@H](CCCNC(=N)N)C(N)=O", "Escherichia coli", "MIC", "> 64 µg/mL"],
  ["CCCCCCCCCCn1c[n+](CCCCCCCCCC)cc1C[C@H](NC(=O)[C@H](CCCNC(=N)N)NC(=O)[C@@H](N)CCCNC(=N)N)C(N)=O", "Escherichia coli", "MIC", "16 µg/mL"],
  ["CCCCCCCCCCCCCCn1c[n+](CCCCCCCCCCCCCC)cc1C[C@H](NC(=O)[C@@H](N)CCCNC(=N)N)C(=O)N[C@@H](CCCNC(=N)N)C(N)=O", "Escherichia coli", "MIC", "> 64 µg/mL"]
]}

// MIC lookup, molecule = "CCCCCCCn1c[n+](CCCCCCC)cc1C[C@H](NC(=O)[C@@H](N)CCCNC(=N)N)C(=O)N[C@@H](CCCNC(=N)N)C(N)=O" , result: > 32 µg/mL

// MIC lookup, molecule = "CCCCCCCCCCn1c[n+](CCCCCCCCCC)cc1C[C@H](N)C(=O)N[C@@H](CCCNC(=N)N)C(=O)N[C@@H](CCCNC(=N)N)C(N)=O" , result: 16 µg/mL

====

experiment: Hemolytic activity in human RBC assessed as hemoglobin release after 1 hr; assay type: ADME, cell-based, Erythrocyte; conditions: red blood cells (RBC)
Reported HC50 at 1 h values are given for each entry in this list.
Kindly provide the numeric value in µg/mL only, without the unit symbol.

{"columns": ["CHEMICAL_SMILES", "METRIC_NAME", "QUANTITATIVE_READOUT"],
 "data": [
  ["CCCCCCCCCCn1c[n+](CCCCCCCCCC)cc1C[C@H](NC(=O)[C@@H](N)CCCNC(=N)N)C(=O)N[C@@H](CCCNC(=N)N)C(N)=O", "HC50 at 1 h", 121],
  ["CCCCCCCCCCn1c[n+](CCCCCCCCCC)cc1C[C@H](N)C(=O)N[C@@H](CCCNC(=N)N)C(N)=O", "HC50 at 1 h", 49]
]}

From here, focus on the item given below.
// HC50 at 1 h lookup, compound = "CCCCCCCCCCn1c[n+](CCCCCCCCCC)cc1C[C@H](N)C(=O)N[C@@H](CCCNC(=N)N)C(=O)N[C@@H](CCCNC(=N)N)C(N)=O" , result: 110

====

system: Salmonella typhimurium; experiment: Antibacterial activity against Salmonella typhimurium KCTC 1926 assessed as growth inhibition after 18 to 20 hrs by broth microdilution method; type: functional, Salmonella enterica subsp. enterica serovar Typhimurium; details: Salmonella enterica
METRIC_NAME: MIC (µg/mL)
Kindly provide the numeric value in µg/mL only, without the unit symbol.

{"columns": ["CHEMICAL_SMILES", "MIC [µg/mL]"],
 "data": [
  ["CCCCCCCCCCn1c[n+](CCCCCCCCCC)cc1C[C@H](N)C(=O)N[C@@H](CCCNC(=N)N)C(N)=O", 4]
]}

// MIC lookup, compound = "CCCCCCCCCCn1c[n+](CCCCCCCCCC)cc1C[C@H](NC(=O)[C@H](CCCNC(=N)N)NC(=O)[C@@H](N)CCCNC(=N)N)C(N)=O" , result: 8

// MIC lookup, compound = "CCCCCCCCCCn1c[n+](CCCCCCCCCC)cc1C[C@H](N)C(=O)N[C@@H](CCCNC(=N)N)C(=O)N[C@@H](CCCNC(=N)N)C(N)=O" , result: 8

====

Reported MIC values are given for each entry in this list.
test system: Staphylococcus epidermidis; assay: Antibacterial activity against Staphylococcus epidermidis KCTC 1917 assessed as growth inhibition after 18 to 20 hrs by broth microdilution method; format: functional
Kindly provide the numeric value in µg/mL only, without the unit symbol.

{"columns": ["CHEMICAL_SMILES", "MEASUREMENT_UNIT", "MIC"],
 "data": [
  ["CCCCCCCCCCn1c[n+](CCCCCCCCCC)cc1C[C@H](NC(=O)[C@@H](N)CCCNC(=N)N)C(=O)N[C@@H](CCCNC(=N)N)C(N)=O", "µg/mL", 4]
]}

From here, focus on the item given below.
// MIC lookup, compound = "CCCCCCC/C=C/Cn1cncc1C[C@H](NC(=O)[C@@H](N)CCCNC(=N)N)C(=O)N[C@@H](CCCNC(=N)N)C(N)=O" , result: 4

====

test: Hemolytic activity in human RBC assessed as hemoglobin release after 1 hr; type: ADME, cell-based, Erythrocyte; conditions: red blood cells (RBC)
METRIC_NAME: HC50 at 1 h

{"columns": ["CHEMICAL_SMILES", "HC50 at 1 h"],
 "data": [
  ["CCCCCCCCCCCCCCn1c[n+](CCCCCCCCCCCCCC)cc1C[C@H](NC(=O)[C@@H](N)CCCNC(=N)N)C(=O)N[C@@H](CCCNC(=N)N)C(N)=O", "> 256 µg/mL"],
  ["CCCCCCCCCCn1c[n+](CCCCCCCCCC)cc1C[C@H](NC(=O)[C@H](CCCNC(=N)N)NC(=O)[C@@H](N)CCCNC(=N)N)C(N)=O", "116 µg/mL"],
  ["CCCCCCCCCCn1cncc1C[C@H](NC(=O)[C@@H](N)CCCNC(=N)N)C(=O)N[C@@H](CCCNC(=N)N)C(N)=O", "> 256 µg/mL"]
]}

From here, focus on the item given below.
// HC50 at 1 h lookup, molecule = "CCCCCCCn1c[n+](CCCCCCC)cc1C[C@H](NC(=O)[C@@H](N)CCCNC(=N)N)C(=O)N[C@@H](CCCNC(=N)N)C(N)=O" , result: > 256 µg/mL

====

system: Salmonella typhimurium; assay: Antibacterial activity against Salmonella typhimurium KCTC 1926 assessed as growth inhibition after 18 to 20 hrs by broth microdilution method in presence of NaCl; type: functional, Salmonella enterica subsp. enterica serovar Typhimurium; details: Salmonella enterica
METRIC_NAME: MIC (µg/mL)
Kindly provide the numeric value in µg/mL only, without the unit symbol.

Take a look at these entries with their results.
{"columns": ["CHEMICAL_SMILES", "METRIC_NAME", "MEASUREMENT_UNIT", "QUANTITATIVE_READOUT"],
 "data": [
  ["CCCCCCC/C=C/Cn1cncc1C[C@H](NC(=O)[C@@H](N)CCCNC(=N)N)C(=O)N[C@@H](CCCNC(=N)N)C(N)=O", "MIC", "µg/mL", 64],
  ["CCCCCCCCCCn1c[n+](CCCCCCCCCC)cc1C[C@H](NC(=O)[C@H](CCCNC(=N)N)NC(=O)[C@@H](N)CCCNC(=N)N)C(N)=O", "MIC", "µg/mL", 16]
]}

// MIC lookup, compound = "CCCCCCCn1c[n+](CCCCCCC)cc1C[C@H](NC(=O)[C@@H](N)CCCNC(=N)N)C(=O)N[C@@H](CCCNC(=N)N)C(N)=O" , result: 32

// MIC lookup, compound = "CCCCCCCCCCn1c[n+](CCCCCCCCCC)cc1C[C@H](N)C(=O)N[C@@H](CCCNC(=N)N)C(=O)N[C@@H](CCCNC(=N)N)C(N)=O" , result: 16

// MIC lookup, compound = "CCCCCCCCCCn1c[n+](CCCCCCCCCC)cc1C[C@H](N)C(=O)N[C@@H](CCCNC(=N)N)C(N)=O" , result: 8

// MIC lookup, compound = "CCCCCCCCCCn1c[n+](CCCCCCCCCC)cc1C[C@H](NC(=O)[C@@H](N)CCCNC(=N)N)C(=O)N[C@@H](CCCNC(=N)N)C(N)=O" , result: 16

Reference for the values: ChEMBL document CHEMBL2424635
